test system: control IgG (IgG purified from one donor); experiment: Direct binding ELISA, negative control immunoglobulin; parameters: species or system human; conditions: Table 2; control IgG 5 μg/ml
So basically, if binding of control IgG to peptide (OD at 405 nm) comes in under 0.07 it's Criterion met, and if it's 0.07 or more it's Criterion not met.

{"substance": "PLPDWRV [Pep 12]", "qualitative.label": "Criterion met"}
{"substance": "DWLYSRS [Pep 13]", "qualitative.label": "Criterion not met"}
{"substance": "KHETTET [Pep 1]", "qualitative.label": "Criterion met"}
{"substance": "PPQKHLL [Pep 14]", "qualitative.label": "Criterion not met"}

* * *

system: anti-anti-dsDNA (anti-Id) isolated from IVIG; assay: Direct binding of anti-Id to the synthetic peptides by ELISA; parameters: species or system human; conditions: Table 2; anti-Id 10 μg/ml; plates coated with 10 ug/ml peptide
metric: binding of anti-Id to peptide (OD at 405 nm)

{"substance": "DWLYSRS [Pep 13]", "value.measured": 0.748}
{"substance": "PLPDWRV [Pep 12]", "value.measured": 1.356}
{"substance": "KHETTET [Pep 1]", "value.measured": 1.815}
{"substance": "KYKRKYP [Pep 15]", "value.measured": 0.287}
{"substance": "PPQKHLL [Pep 14]", "value.measured": 0.987}
